All figures here come from paper doi:10.1101/2022.04.14.488411v1.

What IC50 was measured for each of the following?
# Tested on: RPMI 8226
# TEST: cells
# CONDITIONS: Homo sapiens, RPMI-8226, 72 h, read-out: IC50 (uM)

See these solved cases before continuing.
> print(dat)
                           substance.smiles   result
1  N#Cc1ccnc(N2C(=O)CC[C@H]2C(=O)N(c2cncc(F)c2)[C@H](C(=O)NC2CC(F)(F)C2)c2ccccc2Cl)c1  > 10 µM
2  COc1cc(-c2cn(C)c(=O)c3cnccc23)c(OC)cc1CN(C)C  > 10 µM

We next turn to a different compound, shown below.
// CO[C@H]1CC[C@H](n2c([C@@H]3CCCC(=O)N3c3ccc(F)c(F)c3)nc3cc(-c4c(C)noc4C)ccc32)CC1 : IC50 value = 7.62 µM

###

# Test system: HEK293
# TEST: cells
# CONDITIONS: Homo sapiens, HEK293, 72 h, read-out: IC50 (nM)
READOUT_NAME: IC50 (nM)
One number for each entry, in nM.

With HEK293 as the test system, NS(=O)(=O)OC[C@H]1C[C@@H](Nc2ccnc3cc(-c4cccc(SC(F)(F)F)c4)nn23)[C@H](O)[C@@H]1O showed IC50 of 177

###

# Tested on: OCI-M2
# TEST: cells
# CONDITIONS: OCI-M2, 72 h, read-out: IC50 (nM)
READOUT_NAME: IC50 (nM)
Answers are plain numbers, in nM.

With OCI-M2 as the test system, NS(=O)(=O)OC[C@H]1C[C@@H](Nc2ccnc3cc(-c4cccc(SC(F)(F)F)c4)nn23)[C@H](O)[C@@H]1O showed IC50 of 44

###

# Test system: MCF7
# TEST: cells
# CONDITIONS: Homo sapiens, MCF7, 72 h, read-out: IC50 (nM)
READOUT_NAME: IC50 (nM)
One number for each entry, in nM.

// NS(=O)(=O)OC[C@H]1C[C@@H](Nc2ccnc3cc(-c4cccc(SC(F)(F)F)c4)nn23)[C@H](O)[C@@H]1O [TAK-243] : IC50 value = 404
